- STATED_CONDITIONS: in THF, 318.15 K
QUANTITY_NAME: solubility (mole fraction)
One number for each entry.

Query: solubility (mole fraction); subject: "C#C[C@]1(O)CC[C@H]2[C@@H]3CCC4=CC(=O)CC[C@@H]4[C@H]3C(=C)C[C@@]21CC"
0.299

* * *

- STATED_CONDITIONS: in THF, 323.15 K
QUANTITY_NAME: solubility (mole fraction)
Numbers only.

Query: solubility (mole fraction); subject: "C#C[C@]1(O)CC[C@H]2[C@@H]3CCC4=CC(=O)CC[C@@H]4[C@H]3C(=C)C[C@@]21CC"
0.332
